Data origin: the Human Domainome abundance scans (Beltran et al. 2025)

B1: Tudor domain-containing protein 3, residues 554 to 611; numbered along this chain, Q9H7E2 (parent)
chain: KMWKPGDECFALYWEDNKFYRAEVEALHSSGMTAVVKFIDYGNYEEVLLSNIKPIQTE

Variants of: B1
assay.overview: abundance fitness (aPCA) (normalised: wild type 0, dead -1); higher = more abundant; growth selection in yeast, the domain comes from the species named
condition.description: Homo sapiens
Class membership depends on abundance fitness alone; the intervals are low bracket (below -0.4), middle bracket (-0.4 to below -0.09), high bracket (-0.09 or more)

Reference set, count: 4
{"columns": ["variant.descriptor", "qualitative.label"],
 "data": [
  ["V36C", "low bracket"],
  ["I55F", "middle bracket"],
  ["V47D", "low bracket"],
  ["L27V", "high bracket"]
]}

Tag the class for K37S
low bracket

Class (by measured abundance fitness) for L27T
middle bracket

Input W14T ; output its category
high bracket
